- Test system: primary rat microglia
- stated.conditions: rat
Structures can show the parent of a compound that is named as a salt.
property.label: LPS % cell toxicity (%)

1) CC(=O)Oc1cc2c(s1)CCN(C(C(=O)C1CC1)c1ccccc1F)C2 (centres unmarked); 1
2) COCCCC/C(=N\OCCN)c1ccc(C(F)(F)F)cc1; 0
3) CCC(=O)O[C@H]1[C@H](O[C@@H]2[C@@H](C)[C@H](O[C@H]3C[C@@](C)(OC)[C@@H](O)[C@H](C)O3)[C@@H](C)C(=O)O[C@H](CC)[C@@](C)(O)[C@H](O)[C@@H](C)C(=O)[C@H](C)C[C@@]2(C)O)O[C@H](C)C[C@@H]1N(C)C [Erythromycin Propionate]; 0
4) Oc1ccc2c3c1O[C@H]1[C@@H](O)CC[C@@]4(O)[C@@H](C2)N(CC2CCC2)CC[C@]314 [Nalbuphine Hydrochloride]; 0
5) CC(=O)O[C@@]12CO[C@@H]1C[C@H](O)[C@@]1(C)C(=O)[C@H](O)C3=C(C)[C@@H](OC(=O)[C@H](O)[C@@H](NC(=O)OC(C)(C)C)c4ccccc4)C[C@@](O)([C@@H](OC(=O)c4ccccc4)[C@H]21)C3(C)C [Docetaxel, reference compound]; 1
6) CC1(C)OC(=O)NC1=O; 0
7) OC[C@@H](O)[C@@H](O)[C@H](O)[C@@H](O)CO; 0
8) CC1=NS(=O)(=O)c2cc(Cl)ccc2N1 [Diazoxide]; 0
9) O=C1CCc2ccc(OCCCCN3CCN(c4cccc(Cl)c4Cl)CC3)cc2N1; 0
10) CC(=O)C1C(=O)C=C(C)OC1=O (centres unmarked) [Dehydroacetic Acid]; 0
11) C[C@@H](O[C@H]1OCCN(Cc2n[nH]c(=O)[nH]2)[C@H]1c1ccc(F)cc1)c1cc(C(F)(F)F)cc(C(F)(F)F)c1 [Aprepitant]; 0
12) CCN1CC(CCN2CCOCC2)C(c2ccccc2)(c2ccccc2)C1=O (centres unmarked) [Doxapram Hydrochloride]; 0
13) CN1C[C@H](C(=O)N[C@]2(C)O[C@@]3(O)[C@@H]4CCCN4C(=O)[C@H](Cc4ccccc4)N3C2=O)C=C2c3cccc4[nH]cc(c34)C[C@H]21 [Ergotamine Tartrate]; 1
14) Nc1cc(C(Cl)=C(Cl)Cl)c(S(N)(=O)=O)cc1S(N)(=O)=O; 0

###

Let's look at some molecules and their measured IC50.
- Tested on: LPS-induced microglia activation
- assay.name: Image-based assay of LPS-induced microglia activation (HTS and dose response)
- Format: cell-based, rat
- stated.conditions: Rattus norvegicus, Microglia, 48 h, Table 1; dose response 0.001-20 μM, triplicates, primary rat microglia, 48 h; read-out: LPS IC50
Where a SMILES comes first, the peptide text is derived from it. Bridges are numbered along the chain shown (N, C = ends). [ ]: non-standard residue; d: D form. The star is where a group is joined. Ileψ(thiazoline)Cys = CC[C@H](C)[C@H](N)C1=N[C@H](C(=O)*)CS1; dOrn = NCCC[C@@H](N)C(=O)O
property.label: IC50

1. CC[C@H](C)[C@H](N)C1=N[C@H](C(=O)N[C@@H](CC(C)C)C(=O)N[C@H](CCC(=O)O)C(=O)N[C@H](C(=O)N[C@H]2CCCCNC(=O)[C@H](CC(N)=O)NC(=O)[C@@H](CC(=O)O)NC(=O)[C@H](Cc3cnc[nH]3)NC(=O)[C@@H](Cc3ccccc3)NC(=O)[C@H]([C@@H](C)CC)NC(=O)[C@@H](CCCN)NC2=O)[C@@H](C)CC)CS1 [Bacitracin, reference compound] ({Ileψ(thiazoline)Cys}-L[dE]IK[dOrn]I[dF]H[dD]N; lactam 4-C); > 20 µM
2. CC(=O)O[C@@]12CO[C@@H]1C[C@H](O)[C@@]1(C)C(=O)[C@H](O)C3=C(C)[C@@H](OC(=O)[C@H](O)[C@@H](NC(=O)OC(C)(C)C)c4ccccc4)C[C@@](O)([C@@H](OC(=O)c4ccccc4)[C@H]21)C3(C)C [Docetaxel, reference compound]; > 20 µM
3. C[C@]12C=CC(=O)C=C1CC[C@H]1[C@@H]3C[C@@H](O)[C@](O)(C(=O)CO)[C@@]3(C)C[C@H](O)[C@@]12F [Triamcinolone, reference compound]; 0.4 µM

###

Let's look at some compounds and their measured IC50.
- System: fibrin-induced microglia activation
- assay.name: Image-based assay of fibrin-induced microglia activation (HTS and dose response)
- Format: cell-based, rat
- stated.conditions: Rattus norvegicus, Microglia, 48 h, Table 1; dose response 0.001-20 μM, triplicates, primary rat microglia, 48 h; read-out: Fibrin IC50
Counter-ions that a name gives are not always drawn.
property.label: IC50

1) CC(=O)OCC(=O)[C@@]1(OC(C)=O)[C@@H](C)C[C@H]2[C@@H]3C[C@H](F)C4=CC(=O)C=C[C@]4(C)[C@@]3(F)[C@@H](O)C[C@@]21C [Diflorasone diacetate, reference compound]; 0.01 µM
2) C[C@@H]1C[C@H]2[C@@H]3CCC4=CC(=O)C=C[C@]4(C)[C@@]3(F)[C@@H](O)C[C@]2(C)[C@@]1(O)C(=O)CO [Dexamethasone, reference compound]; 15 µM
3) Cc1cccc(C)c1N=C1NCCCS1 [Xylazine hydrochloride, reference compound]; 2 µM

###

- Tested on: fibrin-induced microglia activation
- assay.name: Image-based assay of fibrin-induced microglia activation (HTS and dose response)
- Type: cell-based, rat
- stated.conditions: Rattus norvegicus, Microglia, primary microglia HTS, fibrin stimulation, compounds at 10 μM; read-out: Fibrin % inhibition
The threshold is inclusive: inhibition at 10 µM of exactly -10% counts as class 1; values below receive class 0.

1) CC[C@]1(O)C[C@H]2CN(CCc3c([nH]c4ccccc34)[C@@](C(=O)OC)(c3cc4c(cc3OC)N(C=O)[C@H]3[C@@](O)(C(=O)OC)[C@H](OC(C)=O)[C@]5(CC)C=CCN6CC[C@]43[C@@H]65)C2)C1 [Vincristine]; class 1
2) CC(=O)[C@H]1CC[C@H]2[C@@H]3CC[C@@H]4C[C@H](O)CC[C@]4(C)[C@H]3CC[C@]12C [Eltanolone]; class 1
3) CCC(=O)Oc1ccc2c(c1)CC[C@@H]1[C@@H]2CC[C@]2(C)[C@@H](OC(=O)CC)CC[C@@H]12 [Estradiol Dipropionate]; class 1
4) CCCCCCCCNC(C)C(O)c1ccc(SC(C)C)cc1 (stereo not shown) [Suloctidil]; class 1
5) Cc1ccc(/N=C/N(C)/C=N/c2ccc(C)cc2C)c(C)c1 [Amitraz]; class 0
6) CC(C)Nc1cccnc1N1CCN(C(=O)c2cc3cc(NS(C)(=O)=O)ccc3[nH]2)CC1 [Delavirdine]; class 0
7) CC[C@H]1OC(=O)[C@H](C)[C@@H](O[C@H]2C[C@@](C)(OC)[C@@H](O)[C@H](C)O2)[C@H](C)[C@@H](O[C@@H]2O[C@H](C)C[C@H](N(C)C)[C@H]2O)[C@](C)(O)C[C@@H](C)CN(C)[C@H](C)[C@@H](O)[C@]1(C)O [Azithromycin]; class 0
8) Nc1nccs1 [Aminothiazole]; class 0
9) CCC(=O)O[C@](Cc1ccccc1)(c1ccccc1)[C@H](C)CN(C)C [Dextropropoxyphene]; class 0
10) CN(C)CC(c1ccc(O)cc1)C1(O)CCCCC1 (stereo not shown) [Desvenlafaxine]; class 1

###

- Test system: LPS-induced microglia activation
- assay.name: Image-based assay of LPS-induced microglia activation (HTS and dose response)
- Assay type: cell-based, rat
- stated.conditions: Rattus norvegicus, Microglia, 48 h, Table 1; dose response 0.001-20 μM, triplicates, primary rat microglia, 48 h; read-out: LPS IC50
Counter-ions that a name gives are not always drawn.
Let's look at some molecules and their measured IC50.
property.label: IC50 (µM)

1) CC(=O)OCC(=O)[C@H]1CC[C@H]2[C@@H]3CCC4=CC(=O)CC[C@]4(C)[C@H]3CC[C@]12C [Desoxycorticosterone acetate, reference compound]; 5
2) CN1CCN(CCCN2c3ccccc3Sc3ccc(C(F)(F)F)cc32)CC1 [Trifluoperazine dihydrochloride, reference compound]; 6
3) CC[C@@H](C(=O)[C@@H](C)[C@@H](O)[C@H](C)[C@@H]1O[C@@H]([C@@H](CC)C(=O)O)CC[C@@H]1C)[C@H]1O[C@]2(C=C[C@@H](O)[C@]3(CC[C@@](C)([C@H]4CC[C@](O)(CC)[C@H](C)O4)O3)O2)[C@H](C)C[C@@H]1C [Salinomycin, sodium, reference compound]; 2
4) [H]/N=C(/NCCCCC)N/N=C/c1c[nH]c2ccc(OC)cc12 [Tegaserod maleate, reference compound]; 19
5) C[C@H]1C[C@H]2[C@@H]3CCC4=CC(=O)C=C[C@]4(C)[C@@]3(F)[C@@H](O)C[C@]2(C)[C@@]1(O)C(=O)CO [Betamethasone, reference compound]; 0.01
6) CCCC(=O)O[C@]1(C(=O)CO)CC[C@H]2[C@@H]3CCC4=CC(=O)CC[C@]4(C)[C@H]3[C@@H](O)C[C@@]21C [Hydrocortisone butyrate, reference compound]; 2
7) COC(=O)Nc1nc2ccc(Sc3ccccc3)cc2[nH]1 [Fenbendazole, reference compound]; 4

Data origin, for the record: patent US20210330611A1
